tested on: NK-92 (IL-2 2.5 ng/mL); test: drug sensitivity score (DSS) (DSS units); higher = more sensitive; extreme values may be limits of the assay; settings: 72 h
Recorded measurements of drug sensitivity score, one per entry
measure: drug sensitivity score

[[record]]
compound = "CN1CCN(c2cc(C(=O)Nc3ccc4c(c3)-c3c(c(C(N)=O)nn3-c3ccc(F)cc3)CC4)c(Cl)cn2)CC1 [PHA 408] (max concentration tested 10000 nM)"
numeric_result = 7.75

[[record]]
compound = "CCN1CCN(c2ccc(Nc3cc(N(C)C(=O)Nc4c(Cl)c(OC)cc(OC)c4Cl)ncn3)cc2)CC1 [NVP-BGJ398] (max concentration tested 1000 nM)"
numeric_result = 3.27

[[record]]
compound = "CNC(=O)c1ccc(N2C(=S)N(c3ccc(C#N)c(C(F)(F)F)c3)C(=O)C2(C)C)cc1F [Enzalutamide] (max concentration tested 10000 nM)"
numeric_result = 0.49

[[record]]
compound = "Cc1cc(C(C)Nc2ccccc2)c2nc(N3CCOCC3)cc(=O)n2c1 (stereo unspecified) [TGX-221] (max concentration tested 10000 nM)"
numeric_result = 6.45

[[record]]
compound = "CN(C)C(=O)c1cc2cnc(Nc3ccc(N4CCNCC4)cn3)nc2n1C1CCCC1 [NVP-LEE011] (max concentration tested 10000 nM)"
numeric_result = 2.18

[[record]]
compound = "COc1cc2ncnc(Nc3ccc(F)c(Cl)c3)c2cc1OCCCN1CCOCC1 [Gefitinib] (max concentration tested 10000 nM)"
numeric_result = 4.15


---

system: normal primary NK cells, pool 1 (3 donors), resting (IL-2 0 ng/mL); test: relative IC50 (inflection point of fitted viability curve, relative to fitted max inhibition); higher = less sensitive; conditions: 72 h
Recorded measurements of relative IC50, one per entry
measure: relative IC50

[[record]]
molecule = "Cc1[nH]c2ccccc2c1CCNCc1ccc(/C=C/C(=O)NO)cc1"
measure = "relative IC50"
result = "5.89 nM"

[[record]]
molecule = "COC(=O)C[C@](O)(CCCC(C)(C)O)C(=O)O[C@@H]1C(OC)=C[C@]23CCCN2CCc2cc4c(cc2[C@H]13)OCO4"
measure = "relative IC50"
result = "1.15 nM"

[[record]]
molecule = "COc1cc([C@@H]2c3cc4c(cc3[C@@H](O[C@@H]3O[C@@H]5CO[C@@H](c6cccs6)O[C@H]5[C@H](O)[C@H]3O)[C@H]3COC(=O)[C@H]23)OCO4)cc(OC)c1O [Teniposide]"
measure = "relative IC50"
result = "139 nM"

[[record]]
molecule = "COc1cc2c(NC3CCN(C(C)C)CC3)nc(C3CCCCC3)nc2cc1OCCCN1CCCC1"
measure = "relative IC50"
result = "2290 nM"

[[record]]
molecule = "Nc1ncnc2c1nc(Cl)n2[C@@H]1O[C@H](CO)[C@@H](O)[C@H]1O"
measure = "relative IC50"
result = "5340 nM"

[[record]]
molecule = "CC1(C)CCC(CN2CCN(c3ccc(C(=O)NS(=O)(=O)c4ccc(NCC5CCOCC5)c([N+](=O)[O-])c4)c(Oc4cnc5[nH]ccc5c4)c3)CC2)=C(c2ccc(Cl)cc2)C1"
measure = "relative IC50"
result = "8.76 nM"

[[record]]
molecule = "COc1ccc(C[C@H](NC(=O)[C@H](C)NC(=O)CN2CCOCC2)C(=O)N[C@@H](Cc2ccccc2)C(=O)C2(C)CO2)cc1 (stereo in doubt)"
measure = "relative IC50"
result = "20.1 nM"

[[record]]
molecule = "COC(=O)c1ccc2c(c1)NC(=O)/C2=C(\\Nc1ccc(N(C)C(=O)CN2CCN(C)CC2)cc1)c1ccccc1"
measure = "relative IC50"
result = "1010 nM"

[[record]]
molecule = "CN(c1ncccc1CNc1nc(Nc2ccc3c(c2)CC(=O)N3)ncc1C(F)(F)F)S(C)(=O)=O"
measure = "relative IC50"
result = "4770 nM"

[[record]]
molecule = "S=c1[nH]cnc2nc[nH]c12"
measure = "relative IC50"
result = "> 10000 nM"

[[record]]
molecule = "NC(=O)c1ccc(I)c([N+](=O)[O-])c1"
measure = "relative IC50"
result = "1360 nM"

[[record]]
molecule = "Cc1ccc2nc(CN(CCN(Cc3nc4ccc(C)cc4[nH]3)Cc3nc4ccc(C)cc4[nH]3)Cc3nc4ccc(C)cc4[nH]3)[nH]c2c1"
measure = "relative IC50"
result = "8020 nM"

[[record]]
molecule = "CCn1c(-c2nonc2N)nc2cnc(Oc3cccc(NC(=O)c4ccc(OCCN5CCOCC5)cc4)c3)cc21"
measure = "relative IC50"
result = "1660 nM"

[[record]]
molecule = "COc1cc2ncnc(Nc3ccc(F)c(Cl)c3)c2cc1OCCCN1CCOCC1"
measure = "relative IC50"
result = "3700 nM"


---

system: YT (IL-2 2.5 ng/mL); experiment: percent inhibition of viability; higher = more inhibition; conditions: 72 h; 10 nM
Recorded measurements of percent inhibition of viability, one per entry
measure: percent inhibition of viability

[[record]]
molecule = "C[C@H]1C[C@@H]2[C@H]([C@@H](O)C[C@@]3(C)[C@H]2CC[C@]3(O)C(=O)CO)[C@@]2(C)C=CC(=O)C=C12 [Methylprednisolone] (max concentration tested 10000 nM)"
measure = "percent inhibition of viability"
result = "10.2%"

[[record]]
molecule = "O=C(O)c1ccc(Nc2ncc3c(n2)-c2ccc(Cl)cc2C(c2c(F)cccc2F)=NC3)cc1 [MLN-8054] (max concentration tested 10000 nM)"
measure = "percent inhibition of viability"
result = "5.88%"

[[record]]
molecule = "CC(=O)c1c(C)c2cnc(Nc3ccc(N4CCNCC4)cn3)nc2n(C2CCCC2)c1=O [Palbociclib] (max concentration tested 10000 nM)"
measure = "percent inhibition of viability"
result = "0.66%"

[[record]]
molecule = "CCn1c(-c2nonc2N)nc2c(C#CC(C)(C)O)ncc(OC[C@H]3CCCNC3)c21 (max concentration tested 10000 nM)"
measure = "percent inhibition of viability"
result = "-1.15%"

[[record]]
molecule = "CNC(=O)c1cccc2cc(Oc3ccnc4cc(OCC5(N)CC5)c(OC)cc34)ccc12 [Lucitanib] (max concentration tested 10000 nM)"
measure = "percent inhibition of viability"
result = "-7.33%"

[[record]]
molecule = "O=C(c1ccc(F)c(F)c1Nc1ccc(I)cc1F)N1CC(O)([C@@H]2CCCCN2)C1 [Cobimetinib] (max concentration tested 1000 nM)"
measure = "percent inhibition of viability"
result = "-2.04%"

[[record]]
molecule = "CCCOc1ccn2c(C(C)=O)cc(-c3ccccc3S(C)(=O)=O)c2c1 [GSK2801] (max concentration tested 10000 nM)"
measure = "percent inhibition of viability"
result = "-0.79%"

[[record]]
molecule = "NC(=O)c1ccc(I)c([N+](=O)[O-])c1 [Iniparib] (max concentration tested 10000 nM)"
measure = "percent inhibition of viability"
result = "6.75%"

[[record]]
molecule = "C=CC[C@@H]1/C=C(\\C)C[C@H](C)C[C@H](OC)[C@H]2O[C@@](O)(C(=O)C(=O)N3CCCC[C@H]3C(=O)O[C@H](/C(C)=C/[C@@H]3CC[C@@H](O)[C@H](OC)C3)[C@H](C)[C@@H](O)CC1=O)[C@H](C)C[C@@H]2OC [Tacrolimus] (max concentration tested 10000 nM)"
measure = "percent inhibition of viability"
result = "-1.87%"

[[record]]
molecule = "COc1cc2c(Nc3ccc(Cl)c(Cl)c3F)ncnc2cc1OC[C@@H]1C[C@@H]2CN(C)C[C@@H]2C1 [XL-647] (max concentration tested 1000 nM)"
measure = "percent inhibition of viability"
result = "-2.73%"

[[record]]
molecule = "COc1cc2c(cc1O)CC[C@@H]1[C@@H]2CC[C@]2(C)[C@@H](O)CC[C@@H]12 [2-methoxyestradiol] (max concentration tested 10000 nM)"
measure = "percent inhibition of viability"
result = "2.82%"

[[record]]
molecule = "CCc1c2c(nc3ccc(OC(=O)N4CCC(N5CCCCC5)CC4)cc13)-c1cc3c(c(=O)n1C2)COC(=O)[C@]3(O)CC [Irinotecan] (max concentration tested 10000 nM)"
measure = "percent inhibition of viability"
result = "-7.93%"


---

tested on: normal primary NK cells, pool 1 (3 donors) (IL-2 2.5 ng/mL); assay: percent inhibition of viability; higher = more inhibition; conditions: 72 h; 10000 nM
Recorded measurements of percent inhibition of viability, one per entry
measure: percent inhibition of viability (%)

[[record]]
compound = "COc1cc2c(NC3CCN(C(C)C)CC3)nc(C3CCCCC3)nc2cc1OCCCN1CCCC1 [UNC0638] (max concentration tested 10000 nM)"
numeric_result = 100

[[record]]
compound = "C[C@@H]1C[C@H]2O[C@@H]2/C=C\\C=C\\C(=O)Cc2c(Cl)c(O)cc(O)c2C(=O)O1 [Radicicol] (max concentration tested 10000 nM)"
numeric_result = 94.1

[[record]]
compound = "CNC(=O)c1ccc(N2C(=S)N(c3ccc(C#N)c(C(F)(F)F)c3)C(=O)C2(C)C)cc1F [Enzalutamide] (max concentration tested 10000 nM)"
numeric_result = 4.21

